All figures here come from paper PMC10441386.

Target: PSD-95 PDZ3cα protein (residues R309-S422) (UniProt P78352 309-422)
Sequence (P78352 309-422): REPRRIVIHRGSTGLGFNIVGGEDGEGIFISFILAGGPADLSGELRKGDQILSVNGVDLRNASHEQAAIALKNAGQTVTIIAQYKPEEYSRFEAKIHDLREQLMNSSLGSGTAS
Experiment: SPR
Non-standard residues stand in square brackets, D forms with d. No end group written: not given here. Trp(5-OH) = N[C@@H](Cc1c[nH]c2ccc(O)cc12)C(=O)O; Phe(4-NH2) = Nc1ccc(C[C@H](N)C(=O)O)cc1

| binder | display.unit | koff |
| --- | --- | --- |
| RRRRRRGSFPPW[dV]QQTRV [SYNGAP peptide D-Val8] | s⁻¹ | 0.0459 |
| RRRRRRGS[Phe(4-NH2)]PPWVQQTRV [SYNGAP peptide F4-NH2F] | s⁻¹ | 0.0104 |
| RRRRRRGSF[dP]PWVQQTRV [SYNGAP peptide D-Pro4] | s⁻¹ | 0.0116 |
| D-Syn3 (cysteine pairing not given here; also: D- prefix in name, meaning not given here) chain 1: RRRRRRRC chain 2: CGSFPPWVQKTEV | s⁻¹ | 0.0125 |
| GSFPPWVQ [aC binder peptide] | s⁻¹ | 0.00592 |
| RRRRRRGSFPP[Trp(5-OH)]VQQTRV [SYNGAP peptide W7-OHW] | s⁻¹ | 0.0106 |
| CN2097 (peptide) chain 1: RRRRRRRC chain 2: CKNYKKTEV | s⁻¹ | 0.00109 |
| CGSFPPWVKKTEV (not fully specified) [Syn3*] | s⁻¹ | 0.0287 |
| RRRRRRGSFPPWV[dQ]QTRV [SYNGAP peptide D-Gln9] | s⁻¹ | 0.0182 |
| RRRRRRGSFP[dP]WVQQTRV [SYNGAP peptide D-Pro5] | s⁻¹ | 0.0444 |
| RRRRRRG[dS]FPPWVQQTRV [SYNGAP peptide D-Ser3] | s⁻¹ | 0.00493 |
